- Target: PI3K-delta (Homo sapiens, UniProt O00329)
- Sequence (O00329 whole entry, species assumed): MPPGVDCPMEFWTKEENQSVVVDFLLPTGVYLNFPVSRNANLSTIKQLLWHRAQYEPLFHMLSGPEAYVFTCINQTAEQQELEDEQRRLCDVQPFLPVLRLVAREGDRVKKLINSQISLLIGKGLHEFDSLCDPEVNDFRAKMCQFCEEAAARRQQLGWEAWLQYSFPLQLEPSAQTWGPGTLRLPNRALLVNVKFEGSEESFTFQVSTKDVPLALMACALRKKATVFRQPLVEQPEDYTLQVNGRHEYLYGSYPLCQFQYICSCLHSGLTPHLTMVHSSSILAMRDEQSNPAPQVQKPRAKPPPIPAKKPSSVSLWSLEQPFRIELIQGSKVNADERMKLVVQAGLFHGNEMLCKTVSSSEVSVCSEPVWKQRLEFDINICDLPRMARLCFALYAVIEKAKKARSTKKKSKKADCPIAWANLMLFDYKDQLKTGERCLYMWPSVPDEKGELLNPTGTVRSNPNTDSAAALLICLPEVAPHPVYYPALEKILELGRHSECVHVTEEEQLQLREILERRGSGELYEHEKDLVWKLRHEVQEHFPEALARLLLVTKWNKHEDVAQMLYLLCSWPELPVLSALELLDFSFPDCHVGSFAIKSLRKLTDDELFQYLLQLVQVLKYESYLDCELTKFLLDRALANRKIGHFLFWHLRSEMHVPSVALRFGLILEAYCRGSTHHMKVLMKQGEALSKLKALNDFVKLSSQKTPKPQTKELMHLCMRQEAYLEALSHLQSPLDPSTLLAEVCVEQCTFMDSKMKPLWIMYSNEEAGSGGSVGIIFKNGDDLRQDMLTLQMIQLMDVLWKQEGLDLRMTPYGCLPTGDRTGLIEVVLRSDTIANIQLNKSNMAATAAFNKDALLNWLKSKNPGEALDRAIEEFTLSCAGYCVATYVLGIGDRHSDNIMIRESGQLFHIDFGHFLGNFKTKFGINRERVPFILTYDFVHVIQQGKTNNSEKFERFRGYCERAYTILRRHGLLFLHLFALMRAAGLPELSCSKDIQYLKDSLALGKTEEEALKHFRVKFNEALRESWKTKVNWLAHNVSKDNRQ
- Sequence (P27986 whole entry partner, species assumed): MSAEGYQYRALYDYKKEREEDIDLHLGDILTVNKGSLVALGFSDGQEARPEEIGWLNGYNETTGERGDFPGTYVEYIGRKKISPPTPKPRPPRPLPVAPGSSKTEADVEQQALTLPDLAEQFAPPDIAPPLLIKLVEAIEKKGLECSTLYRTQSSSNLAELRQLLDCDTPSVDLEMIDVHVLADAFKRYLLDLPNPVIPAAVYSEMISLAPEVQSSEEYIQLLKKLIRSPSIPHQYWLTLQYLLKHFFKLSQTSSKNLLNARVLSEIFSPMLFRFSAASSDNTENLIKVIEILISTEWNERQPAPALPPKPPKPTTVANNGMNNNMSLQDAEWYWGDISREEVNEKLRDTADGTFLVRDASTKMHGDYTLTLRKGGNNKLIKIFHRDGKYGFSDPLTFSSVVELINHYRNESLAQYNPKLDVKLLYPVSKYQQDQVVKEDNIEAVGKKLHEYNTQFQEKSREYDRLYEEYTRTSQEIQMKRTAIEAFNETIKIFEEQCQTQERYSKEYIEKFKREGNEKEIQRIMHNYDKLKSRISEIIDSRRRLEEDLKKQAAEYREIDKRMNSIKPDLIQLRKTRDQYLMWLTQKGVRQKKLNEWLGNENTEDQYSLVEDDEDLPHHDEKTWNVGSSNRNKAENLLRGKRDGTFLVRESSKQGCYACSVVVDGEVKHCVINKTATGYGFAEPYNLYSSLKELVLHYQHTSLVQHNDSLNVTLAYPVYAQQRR
- Test Protocol: Kinase inhibition assay, P-33 labelled ATP phosphate transfer, PI3K-delta

{"Input Smiles": "O=c1nc(N2CCOCC2)oc2c(-c3ccccc3)csc12", "IC50, µM": 1.5}

* * *

- Target: PIM-1 (Homo sapiens, UniProt P11309)
- Sequence (P11309 whole entry, species assumed): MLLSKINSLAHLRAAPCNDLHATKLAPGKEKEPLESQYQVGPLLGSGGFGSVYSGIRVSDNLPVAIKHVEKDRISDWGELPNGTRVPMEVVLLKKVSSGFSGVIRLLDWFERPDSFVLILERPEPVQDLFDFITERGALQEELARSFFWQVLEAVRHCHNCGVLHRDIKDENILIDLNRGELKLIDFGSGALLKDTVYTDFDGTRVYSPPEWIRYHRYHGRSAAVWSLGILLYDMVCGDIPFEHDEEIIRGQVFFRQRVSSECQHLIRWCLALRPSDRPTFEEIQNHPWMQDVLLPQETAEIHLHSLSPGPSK
- Test Protocol: Kinase inhibition assay, P-33 labelled ATP phosphate transfer, PIM-1
- Assay type: biochemical
- Condition Parameters: read-out: PIM-1(% Inh at 10 μM)
Each entry below carries its recorded inhibition at 10 µM.

{"Molecule": "O=c1nc(N2CCOCC2)[nH]c2c1cnn2CCO [Compound 26]", "Target": "PIM-1 (Homo sapiens, UniProt P11309)", "Reading Unit": "%", "inhibition at 10 µM": 1.5}
{"Molecule": "O=c1nc(N2CCOCC2)[nH]c2c1cnn2-c1ccccn1 [Compound 25]", "Target": "PIM-1 (Homo sapiens, UniProt P11309)", "Reading Unit": "%", "inhibition at 10 µM": 9.4}
{"Molecule": "O=c1nc(N2CCOCC2)[nH]c2c1cnn2-c1ccccc1 [Compound 22]", "Target": "PIM-1 (Homo sapiens, UniProt P11309)", "Reading Unit": "%", "inhibition at 10 µM": 45}
{"Molecule": "CCOC(=O)Cn1ncc2c(=O)nc(N3CCOCC3)[nH]c21 [Compound 24]", "Target": "PIM-1 (Homo sapiens, UniProt P11309)", "Reading Unit": "%", "inhibition at 10 µM": 0.9}
{"Molecule": "O=c1nc(N2CCOCC2)[nH]c2c1cnn2C1CCCCC1 [Compound 8]", "Target": "PIM-1 (Homo sapiens, UniProt P11309)", "Reading Unit": "%", "inhibition at 10 µM": 3.2}
{"Molecule": "O=c1nc(N2CCOCC2)[nH]c2c1cnn2Cc1ccccc1 [Compound 23]", "Target": "PIM-1 (Homo sapiens, UniProt P11309)", "Reading Unit": "%", "inhibition at 10 µM": 2.1}
